B1: CSNK1G1 (parent)
chain: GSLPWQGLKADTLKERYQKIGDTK

# Variants of: B1
# assay.remarks: protein stability index of a GFP-peptide fusion (GPS, HEK-293T) (PSI 1-6); higher = more stable;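 also: lentivirally expressed fusions sorted by FACS into six bins by GFP to DsRed ratio, PSI derived from sequencing read proportions per bin multiplied by bin number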
# assay.setup: c terminus: a fixed tail appended
# protein stability index values compiled below
Returns: the value as a bare number; no unit string appended.

• D22I = 3.41

Assign protein stability index to the following record: "T12C"
4.06

Assign protein stability index to the following record: "S2G"
3.69

Assign protein stability index to the following record: "Q18I"
3.57

Assign protein stability index to the following record: "A10K"
4.28

Assign protein stability index to the following record: "Q18R"
3.96
